Molecular target: T1, naked peptide MTPTDFTSPI (human)
T1 peptide: MTPTDFTSPI
Experiment: ELISA naked peptide; scFv 1 ug/mL; repII

BINDER	OD450
Comparative antibody 1 (Comp-1) scFv, SEQ ID NO: 10 from WO2023/037125 A1, His-tagged (scFv) scFv: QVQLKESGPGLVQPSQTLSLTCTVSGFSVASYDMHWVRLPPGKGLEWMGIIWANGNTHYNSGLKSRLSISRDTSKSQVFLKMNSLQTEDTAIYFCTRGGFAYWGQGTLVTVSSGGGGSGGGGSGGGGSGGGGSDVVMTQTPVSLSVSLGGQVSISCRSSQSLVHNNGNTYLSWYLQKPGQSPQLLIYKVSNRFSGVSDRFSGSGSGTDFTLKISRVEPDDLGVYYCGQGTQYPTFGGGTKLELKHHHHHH	0.04 OD
